procedureDetails: Test for solubility in various solvents
Format: physicochemical
conditionsUsed: buffer pH 6, ionic strength 0.2, 25 °C, pH 6, aqueous buffer, pH 6, ionic strength 0.2 buffer; based on weight of amlodipine; 25° C., note: dissolved at 37° C.; read-out: solubility
measuredAttribute: solubility (µg/mL)

| compound | measuredAttribute | endpointResult |
| --- | --- | --- |
| CCOC(=O)C1=C(COCCN)NC(C)=C(C(=O)OC)C1c1ccccc1Cl.O=C(O)Cc1ccc(O)cc1 (stereo not shown) [amlodipine p-hydroxyphenylacetate] | solubility | 2200 |
